Biological target: recombinant human EGFR exon 19 deletion/C797S double mutant protein (Homo sapiens (Human), UniProt P00533, C797S/DEL746-750)
Sequence (P00533 other isoform, or with tags, fused parts or gaps C797S/del 1-668/del 746-750 limits assumed): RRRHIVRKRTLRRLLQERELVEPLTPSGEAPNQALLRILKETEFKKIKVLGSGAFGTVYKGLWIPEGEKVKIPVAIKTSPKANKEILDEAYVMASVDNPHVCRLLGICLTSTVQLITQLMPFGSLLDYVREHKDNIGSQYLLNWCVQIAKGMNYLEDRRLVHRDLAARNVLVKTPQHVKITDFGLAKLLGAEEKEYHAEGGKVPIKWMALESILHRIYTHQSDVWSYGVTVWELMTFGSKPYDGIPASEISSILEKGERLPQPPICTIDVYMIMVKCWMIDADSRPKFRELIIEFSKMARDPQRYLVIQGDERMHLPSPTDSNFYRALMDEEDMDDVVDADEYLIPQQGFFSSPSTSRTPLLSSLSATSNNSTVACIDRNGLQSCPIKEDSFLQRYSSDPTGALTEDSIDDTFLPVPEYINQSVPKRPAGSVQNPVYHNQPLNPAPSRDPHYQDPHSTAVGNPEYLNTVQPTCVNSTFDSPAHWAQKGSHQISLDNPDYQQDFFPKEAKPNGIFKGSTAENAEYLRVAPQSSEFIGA
Assay: Biological Activity Assay C: biochemical assay against EGFR exon 19 deletion/C797S protein (EGFR d19/CS)
Description: In Row A of a 384-well polypropylene plate, was added 48 μL of DMSO. In wells A1 and A24, were added 12 μL of DMSO. […] To a well in Row A were added 12 μL of each 10 mM test compound stock (100% DMSO). […] To the black low volume assay ready plates, were added 5 μL of 40 uM Phosphosens peptide sensor/4 mM ATP working solution to each well. […] The slope of each curve was constructed using Dotmatics in each well, and each IC50s was calculated using a 4-parameter fit model.
pIC50: −log10 of the molar value.
measurement label: pIC50

Below: 2 molecules and their reported pIC50.
| molecule | measurement label | quantitative readout |
| --- | --- | --- |
| CS(=O)(=O)CCn1cc(-c2ncnc3oc(-c4ccccc4)cc23)c(-c2ccc(F)cc2)n1 | pIC50 | 9.07 |
| CC(C)(O)CCn1cc(-c2ncnc3[nH]c(-c4ccccc4)nc23)c(-c2ccc(F)cc2)n1 | pIC50 | 9.26 |

(1) OCCCn1cc(-c2ncnc3oc(-c4ccccc4)cc23)c(-c2ccc(F)cc2)n1
(2) CC(O)CCn1cc(-c2ncnc3oc(-c4ccccc4)cc23)c(-c2ccc(F)cc2)n1 (stereo not shown)
(3) N=[S@]1(=O)CC[C@H](n2cc(-c3ncnc4oc(-c5ccccc5)cc34)c(-c3ccc(F)cc3)n2)C1 (single isomer, unassigned)
### Prompt Rank the items in ascending order with respect to pIC50. Use the labels to give the requested order.
### Response 2, 1, 3
(2: 9.15, 1: 9.39, 3: 10.22)

These data points were gathered from patent US20250034159A1.
